# assay-text: Reducing activity to scavenge 10 uM 1, 1-diphenylpicrylhydrazyl (DPPH)
# Assay type: functional
Measured RC10 by item
observed-property: RC10 (µM)

CCCCCCCCCCCCNc1c(N)n(Cc2ccccc2)c(=O)[nH]c1=O: 6.5
CCCCCCCCCCCCn1c(O)nc2[nH]c(=O)[nH]c(=O)c21: 27
CCCCCCCCCCCCNc1c(N)nc(O)nc1O: 4.5
CCCCCCCCCCCCCCCCCCNc1[nH]c(=O)n(C)c(=O)c1N: 6.2
CCCCCCCCCCCCn1c(N)c(N)c(=O)[nH]c1=O: 7
Cn1c(O)nc2[nH]c(=O)[nH]c(=O)c21: 20
CCCCCCCCCCn1c(N)c(N)c(=O)[nH]c1=O: 5.6

###

# assay-text: Inhibition time for 20 uM during peroxidation of liposomal suspension of dilinoleoylphosphatidylcholine (DPLC) indicated by DMVN at 40 degree Centigrade
hey, just use MET if measured T inh is less than 3000 s, otherwise NOT MET

CCCCCCCCCCCCn1c(N)c(N)c(=O)[nH]c1=O: NOT MET
Cc1c(C)c2c(c(C)c1O)CCC(C)(C(=O)O)O2 (configuration not stated) [TROLOX]: NOT MET
CCCCCCCCCCCCNc1c(N)nc(O)nc1O: NOT MET
CCCCCCCCCCCCCCCCCCNc1[nH]c(=O)n(C)c(=O)c1N: MET
CCCCCCCCCCCCn1c(=O)[nH]c(N)c(N)c1=O: NOT MET
CCCCCCCCn1c(N)c(N)c(=O)[nH]c1=O: NOT MET
CCCCCCCCCCCCCCCCNc1nc(O)nc(O)c1N: MET
CCCCCCCCCCCCNc1nc(O)nc(O)c1N: NOT MET
CCCCCCn1c(N)c(N)c(=O)[nH]c1=O: MET
CCCCCCCCCCn1c(N)c(N)c(=O)[nH]c1=O: NOT MET
CCCCCCCCCCCCn1c(N)c(N)c(=O)n(C)c1=O: NOT MET
Cn1c(N)c(N)c(=O)[nH]c1=O: MET

###

# assay-text: Inhibition time for 20 uM during peroxidation of methyl linoleate / DMVN in TBA /methanol medium at 40 degree Centigrade
observed-property: T inh

Cn1c(N)c(N)c(=O)[nH]c1=O: 156 s
CCCCCCCCCCCCn1c(=O)[nH]c(N)c(N)c1=O: 144 s
CCCCCCCCCCCCCCCCCCNc1[nH]c(=O)n(C)c(=O)c1N: 114 s
Cc1c(C)c2c(c(C)c1O)CC[C@@](C)(CCC[C@H](C)CCC[C@H](C)CCCC(C)C)O2: 190 s
CCCCCCCCCCCCCCCCNc1nc(O)nc(O)c1N: 150 s
CCCCCCCCCCCCNc1c(N)nc(O)nc1O: 84 s
CCCCCCCCCCCCn1c(N)c(N)c(=O)n(C)c1=O: 126 s
Cc1c(C)c2c(c(C)c1O)CCC(C)(C(=O)O)O2 (stereo not drawn) [TROLOX]: 195 s
CCCCCCCCCCCCn1c(N)c(N)c(=O)[nH]c1=O: 102 s
CCCCCCCCCCCCNc1nc(O)nc(O)c1N: 105 s
CCCCCCCCn1c(N)c(N)c(=O)[nH]c1=O: 114 s
CCCCCCn1c(N)c(N)c(=O)[nH]c1=O: 105 s
CCCCCCCCCCn1c(N)c(N)c(=O)[nH]c1=O: 114 s

###

# assay-text: Reducing activity to scavenge 10 uM 1, 1-diphenylpicrylhydrazyl (DPPH)
# Format: functional
This listing pairs compounds with measured RC10.
observed-property: RC10 (µM)

CCCCCCCCn1c(=O)[nH]c(=O)c2[nH]c(O)nc21: 6.5
Cc1c(C)c2c(c(C)c1O)CC[C@@](C)(CCC[C@H](C)CCC[C@H](C)CCCC(C)C)O2: 6
CCCCCCCCCCCCn1c(O)nc2c(=O)[nH]c(=O)[nH]c21: 6.2
CCCCCCCCCCCCn1c(=O)[nH]c2[nH]c(O)nc2c1=O: 5.2
CCCCCCCCCCCCCCCCNc1nc(O)nc(O)c1N: 6.4
Cn1c(=O)[nH]c2[nH]c(=O)[nH]c2c1=O: 4.5
CCCCCCCCCCCCn1c(=O)n(C)c(=O)c2[nH]c(O)nc21: 3
Cn1c(=O)[nH]c2[nH]c(=O)n(C)c2c1=O: 14
CCCCCCCCn1c(N)c(N)c(=O)[nH]c1=O: 6.5

Origin of measurements: ChEMBL document CHEMBL1126693
